Recorded measurements of inhibition at 1 µM, one per entry
target: human μ-opiate receptor (Homo sapiens); construct: purchased PerkinElmer Life Sciences, Zaventem, Belgium RB-HOM; host or cells: CHO-K1 cells (recombinant expression; membrane preparation); test: Affinity for the human μ-opiate receptor ([3H]-naloxone displacement, SPA); conditions: Table 2, Examples 11-161; test substance 1 μmole/l; inhibition of specific [3H]-naloxone binding; CHO-K1 membranes; read-out: μ-Opioid receptor, % inhibition [1 μM]
measured-endpoint: inhibition at 1 µM

INSERT INTO assay_data (compound, measured_endpoint, result) VALUES
  ('COC(=O)C1(C)N=CN(Cc2ccccc2)C1CC1CCC(C(c2cccc(F)c2)N(C)C)CC1 (stereo not shown)', 'inhibition at 1 µM', '98%'),
  ('CCCCC1(C(=O)OC)N=CN(CCc2ccccc2)C1C1CCC(C(c2ccc(Cl)cc2)N(C)C)CC1 (stereo not shown)', 'inhibition at 1 µM', '94%'),
  ('COC(=O)C1(C)N=CN(CCc2ccccc2)C1CC1CCC(C(c2cccc(F)c2)N(C)C)CC1 (stereo not shown)', 'inhibition at 1 µM', '100%'),
  ('CCCCC1(C(=O)OC)N=CN(C2CCCCC2)C1C1CCC(C(c2ccc(Cl)cc2)N(C)C)CC1 (stereo not shown)', 'inhibition at 1 µM', '92%'),
  ('CCCCN1C=NC(CSCc2ccccc2)(C(=O)OC)C1CC1CCC(C(c2cccc(F)c2)N(C)C)CC1 (stereo not shown)', 'inhibition at 1 µM', '98%'),
  ('COC(=O)C1(Cc2ccc(Cl)cc2)N=CN(Cc2ccccc2)C1C1CCC(C(c2ccc(Cl)cc2)N(C)C)CC1 (stereo not shown)', 'inhibition at 1 µM', '84%'),
  ('COC(=O)CCC1(C(=O)OC)N=CN(C2CCCCC2)C1C1CCC(C(c2cccc(F)c2)N(C)C)CC1 (stereo not shown)', 'inhibition at 1 µM', '98%');

====

# inhibition at 1 µM annotations
molecular target: human μ-opiate receptor (Homo sapiens); construct: purchased PerkinElmer Life Sciences, Zaventem, Belgium RB-HOM; host or cells: CHO-K1 cells (recombinant expression; membrane preparation); assay: Affinity for the human μ-opiate receptor ([3H]-naloxone displacement, SPA); conditions: Table 2, Examples 11-161; test substance 1 μmole/l; inhibition of specific [3H]-naloxone binding; CHO-K1 membranes; read-out: μ-Opioid receptor, % inhibition [1 μM]
measured-endpoint: inhibition at 1 µM

INSERT INTO results (molecule, measured_endpoint, result) VALUES
  ('CCCC1(C(=O)OC)N=CN(CCc2ccccc2)C1CC1CCC(C(c2cccc(F)c2)N(C)C)CC1 (stereo not shown)', 'inhibition at 1 µM', '93%'),
  ('COC(=O)C1(CSCc2ccccc2)N=CN(Cc2ccccc2)C1C1CCC(C(c2ccc(Cl)cc2)N(C)C)CC1 (stereo not shown)', 'inhibition at 1 µM', '95%'),
  ('CCCCC1(C(=O)OC)N=CN(CCC)C1C1CCC(C(c2cccc(F)c2)N(C)C)CC1 (stereo not shown)', 'inhibition at 1 µM', '76%'),
  ('COC(=O)C1(CCSC)N=CN(Cc2ccccc2)C1CC1CCC(C(c2cccc(F)c2)N(C)C)CC1 (stereo not shown)', 'inhibition at 1 µM', '100%');

====

biological target: human μ-opiate receptor (Homo sapiens, UniProt P35372); construct: purchased PerkinElmer Life Sciences, Zaventem, Belgium RB-HOM; host or cells: CHO-K1 cells (recombinant expression; membrane preparation); test: Affinity for the human μ-opiate receptor ([3H]-naloxone displacement, SPA); conditions: Table 2, Examples 11-161; test substance 1 μmole/l; inhibition of specific [3H]-naloxone binding; CHO-K1 membranes; read-out: μ-Opioid receptor, % inhibition [1 μM]
Sequence (P35372 whole entry): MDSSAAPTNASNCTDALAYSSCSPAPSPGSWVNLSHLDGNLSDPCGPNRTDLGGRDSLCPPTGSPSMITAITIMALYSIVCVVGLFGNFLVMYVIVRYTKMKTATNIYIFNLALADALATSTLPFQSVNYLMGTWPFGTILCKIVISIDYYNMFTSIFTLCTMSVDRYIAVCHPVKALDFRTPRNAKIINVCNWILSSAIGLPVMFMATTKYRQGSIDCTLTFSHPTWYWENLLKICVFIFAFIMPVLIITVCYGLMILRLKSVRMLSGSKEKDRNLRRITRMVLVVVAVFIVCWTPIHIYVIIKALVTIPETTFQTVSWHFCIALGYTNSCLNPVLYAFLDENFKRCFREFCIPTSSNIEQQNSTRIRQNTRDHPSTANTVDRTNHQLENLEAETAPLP
measured-endpoint: inhibition at 1 µM (%)

INSERT INTO results (molecule, quantitative_readout) VALUES
  ('CCCCN1C=NC(CSC)(C(=O)OC)C1CC1CCC(C(c2ccc(F)cc2)N(C)C)CC1 (stereo not drawn) [Example 77]', 88),
  ('CCCCN1C=NC(CC(C)C)(C(=O)OC)C1C1CCC(C(c2ccc(Cl)cc2)N(C)C)CC1 (stereo not drawn) [Example 31]', 91),
  ('COC(=O)C1(CCSC)N=CN(C2CCCCC2)C1CC1CCC(C(c2ccc(F)cc2)N(C)C)CC1 (stereo not drawn) [Example 106]', 92);

These entries and their values trace back to patent US7728028B2.
